Assay: Cell cycle arrest in KB/HeLa cells assessed as accumulation at G2/M phase after 24 hrs by flow cytometric analysis
Format: functional, cell-based
Conditions: Homo sapiens
pEC50: −log10 of the molar value.
# binarize pEC50: threshold 7 inclusive, high side label 1, low side label 0

stdin: Has CC[C@]1(O)C[C@H]2CN(CCc3c([nH]c4ccccc34)[C@@](C(=O)OC)(c3cc4c(cc3OC)N(C=O)[C@H]3[C@@](O)(C(=O)OC)[C@H](OC(C)=O)[C@]5(CC)C=CCN6CC[C@]43[C@@H]65)C2)C1 a recorded pEC50 greater than or equal to 7?
stdout: label 1

stdin: I'd appreciate it if you could say whether CC(=O)O[C@H]1C(=O)[C@@]2(C)[C@H]([C@H](OC(=O)c3ccccc3)[C@]3(O)C[C@H](OC(=O)[C@H](O)[C@@H](NC(=O)c4ccccc4)c4ccccc4)C(C)=C1C3(C)C)[C@]1(OC(C)=O)CO[C@@H]1C[C@@H]2O has pEC50 at least equal to 7.
stdout: label 1

stdin: Answer whether pEC50 of COc1ccc(C=C2c3ccccc3C(=O)c3ccccc32)cc1O is greater than or equal to 7.
stdout: label 0

Further cases:
stdin: # bool: pEC50 of COc1cc2c(c(OC)c1OC)-c1ccc(OC)c(=O)cc1[C@@H](NC(C)=O)CC2 >= 7
stdout: label 1

====

Assay: Cell cycle arrest in KB/HeLa cells assessed as accumulation at G1 phase at 100 nM after 24 hrs by flow cytometric analysis
Type: functional, cell-based
Conditions: Homo sapiens
observed_property: Activity (%)
Answers are plain numbers, in %.

Here are 5 compounds together with their reported answers.
stdin: Quick check: Activity of COc1ccc(S(=O)(=O)Oc2c3ccccc3cc3sccc23)cc1 ?
stdout: 51.2

stdin: I would be grateful if you could share the reported Activity for CC[C@]1(O)C[C@H]2CN(CCc3c([nH]c4ccccc34)[C@@](C(=O)OC)(c3cc4c(cc3OC)N(C=O)[C@H]3[C@@](O)(C(=O)OC)[C@H](OC(C)=O)[C@]5(CC)C=CCN6CC[C@]43[C@@H]65)C2)C1 [VINCRISTINE] .
stdout: 0.2

stdin: Given the entry CC(=O)O[C@H]1C(=O)[C@@]2(C)[C@H]([C@H](OC(=O)c3ccccc3)[C@]3(O)C[C@H](OC(=O)[C@H](O)[C@@H](NC(=O)c4ccccc4)c4ccccc4)C(C)=C1C3(C)C)[C@]1(OC(C)=O)CO[C@@H]1C[C@@H]2O [PACLITAXEL] , report its measured Activity.
stdout: 1.2

stdin: Value lookup for Activity; key = COc1ccc(S(=O)(=O)Oc2c3ccccc3cc3ccccc23)cc1
stdout: 56.4

stdin: Need Activity of COC(=O)Nc1nc2cc(C(=O)c3cccs3)ccc2[nH]1 [NOCODAZOLE] , thanks.
stdout: 22.3

Next:
stdin: Recorded Activity of COc1cc2c(c(OC)c1OC)-c1ccc(OC)c(=O)cc1[C@@H](NC(C)=O)CC2 [COLCHICINE] , please.
stdout: 0.3

====

Target: Tubulin (Sus scrofa, UniProt P02554+P02550)
Experiment: Inhibition of porcine brain tubulin polymerization
Can you tell me IC50 for the items I'm about to list?
Answers are plain numbers, in nM.

Some solved entries appear below for comparison.
stdin: For the compound COc1ccc(S(=O)(=O)Oc2c3ccccc3cc3sccc23)cc1OC , what IC50 is on record?
stdout: 1270

stdin: Return reported IC50; argument: COc1ccc(S(=O)(=O)Oc2c3ccccc3cc3ccccc23)cc1
stdout: 1200

stdin: Returns the measured IC50 for the input compound. Input: COc1cccc(S(=O)(=O)Oc2c3ccccc3cc3sccc23)c1
stdout: 290

stdin: Returns the measured IC50 for the input compound. Input: Cc1cccc(S(=O)(=O)Oc2c3ccccc3cc3sccc23)c1
stdout: 740

stdin: Report IC50 for CNc1ccc(S(=O)(=O)Oc2c3ccccc3cc3sccc23)cc1 please.
stdout: 290

Now for another entry.
stdin: Reported IC50 for CN(C)c1ccc(S(=O)(=O)Oc2c3ccccc3cc3sccc23)cc1 : what is it?
stdout: 940
